TARGET_OR_TEST_SYSTEM: T1, recombinant human TL1A (human, UniProt O95150 71-251)
T1 construct: The ELISA method says only 'recombinant TL1A' coated on plates; homotrimeric cytokine; also called TNFSF15; recombinant TL1A
T1 chain: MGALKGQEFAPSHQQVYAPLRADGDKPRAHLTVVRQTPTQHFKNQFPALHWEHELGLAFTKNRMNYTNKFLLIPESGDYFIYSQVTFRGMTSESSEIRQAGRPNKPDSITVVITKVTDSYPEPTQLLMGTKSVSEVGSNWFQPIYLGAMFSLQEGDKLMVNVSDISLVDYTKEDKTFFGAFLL
EXPERIMENTAL_DETAILS: competition ELISA on coated recombinant TL1A; competitor biotinylated TL1A-0002
REPORTED_ENDPOINT: Bioactivity relative to TL1A-0002 (fold)
// note: answer is a bare numeric in fold

TL1A-0291 (antibody, human IgG1, kappa, V domains shown, human IgG1 effector-function-minimized / human kappa) VH: QVQLVQSGAEVKKPGASVKVSCKASGYDFTYYGVSWVRQAPGQGLEWMGWISTYNTGTHYAQKLQGRVTMTTDTSTSTAYMELRSLRSDDTAVYYCARESYYGSGAHRGGMDVWGQGTTVTVSS VL: DIQMTQSPSSLSASVGDRVTITCRASQSVSSYLAWYQQKPGKAPKLLIYDASNRATGVPSRFSGSGSGTDFTLTISSLQPEDFATYYCQQRSNWPWTFGQGTKVEIKR    1.8

Alright, here's another binder for you.
Asked: Tell me Bioactivity relative to TL1A-0002 reported for TL1A-0304 (antibody, human IgG1, kappa, V domains shown, human IgG1 effector-function-minimized / human kappa) VH: QVQLVQSGAEVKKPGASVKVSCKASGYDFTYYGIGWVRQAPGQGLEWMGWISTYNTGTHYAQKLQGRVTMTTDTSTSTAYMELRSLRSDDTAVYYCARESYYGSGAFRGGMDVWGQGTTVTVSS VL: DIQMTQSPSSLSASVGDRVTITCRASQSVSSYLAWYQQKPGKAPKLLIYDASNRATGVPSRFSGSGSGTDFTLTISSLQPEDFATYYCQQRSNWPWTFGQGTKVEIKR
Given back: 3
